The reported numbers originate from paper PMC11163866.

# Assay overview: In vitro metabolic stability in mouse liver microsomes
# Format: in vitro ADME
# Condition set: 1 μM; 0.5 mg/mL microsomes; up to 60 min
Reported metabolic stability (t1/2, min) vs MLM values are given for each entry in this list.

{"columns": ["Compound", "metabolic stability (t1/2, min) vs MLM"],
 "data": [
  ["CCc1ccc(C2=N/C(=C\\NC3CCCCCC3)C(C)=C2C)[nH]1.Cl [compound 110]", "> 60.0 min"],
  ["COC1=CC(c2ccc(Cc3ccc(OC)cc3)[nH]2)=N/C1=C\\NC12CC3CC(CC(C3)C1)C2.Cl [compound 123]", "> 60.0 min"],
  ["CCc1ccc(C2=N/C(=C\\NC3CCCCCCC3)C(C)=C2C)[nH]1.Cl [compound 112]", "> 60.0 min"]
]}

====

metabolic stability (t1/2, min) vs HLM values, listed per item
# Assay overview: In vitro metabolic stability in human liver microsomes
# Type: in vitro ADME
# Condition set: 1 μM; 0.5 mg/mL microsomes; up to 60 min
Measured parameter: metabolic stability (t1/2, min) vs HLM

{"columns": ["Line notation", "Result"],
 "data": [
  ["COC1=CC(c2ccc[nH]2)=N/C1=C\\NCC1CCCCCC1.Cl", "18.6 min"],
  ["COc1ccc(Oc2ccc(N/C=C3\\N=C(c4ccc[nH]4)C4=C3CCCC4)cc2)cc1.Cl", "> 60.0 min"],
  ["COC1=CC(c2ccc(Cc3ccc(OC)cc3)[nH]2)=N/C1=C\\NC12CC3CC(CC(C3)C1)C2.Cl", "> 60.0 min"],
  ["COC1=CC(c2ccc[nH]2)=N/C1=C\\NC1CCCCCC1.Cl", "52.1 min"],
  ["C(/NC1CCCCCC1)=C1/N=C(c2ccc[nH]2)C2=C1CCCC2.Cl", "> 60.0 min"],
  ["CCc1c(C)[nH]c(C2=N/C(=C\\NC34CC5CC(CC(C5)C3)C4)C(C)=C2C)c1C.Cl", "> 60.0 min"],
  ["COC1=CC(c2ccc[nH]2)=N/C1=C\\Nc1cccc(Cl)c1.Cl", "> 60.0 min"],
  ["CCc1ccc(C2=N/C(=C\\NC3CCCCCC3)C(OC)=C2)[nH]1.Cl", "> 60.0 min"],
  ["CCc1ccc(C2=N/C(=C\\NC3CCCCCCC3)C(C)=C2C)[nH]1.Cl", "> 60.0 min"],
  ["CC1=C/C(=C\\NC23CC4CC(CC(C4)C2)C3)N=C1c1ccc[nH]1.Cl", "> 60.0 min"],
  ["Cl.Fc1cc(F)cc(OC2=CC(c3ccc[nH]3)=N/C2=C\\NC23CC4CC(CC(C4)C2)C3)c1", "> 60.0 min"],
  ["COC1=CC(c2ccc(-c3ccc(OC)cc3)[nH]2)=N/C1=C\\NC1CCCCCC1.Cl", "> 60.0 min"],
  ["Cc1ccc(N/C=C2\\N=C(c3ccc[nH]3)C3=C2CCCC3)cc1.Cl", "42.1 min"],
  ["COC1=CC(c2ccc[nH]2)=N/C1=C\\N[C@H]1CC[C@H](C(F)(F)F)CC1.Cl", "13.0 min"],
  ["COC1=CC(c2ccc(Cc3ccc(OC)cc3)[nH]2)=N/C1=C\\NC1CCCC1.Cl", "11.7 min"],
  ["CCc1c[nH]c(C2=N/C(=C\\NC3CCCCCC3)C(C)=C2C)c1.Cl", "> 60.0 min"],
  ["COC1=CC(c2ccc(Cc3ccc(OC)cc3)[nH]2)=N/C1=C\\NC1CCCCC1.Cl", "19.7 min"],
  ["C(/NC1CCCCC1)=C1/N=C(c2ccc[nH]2)C2=C1CCCC2.Cl", "26.7 min"],
  ["Cl.FC(F)(F)Oc1ccc(OC2=CC(c3ccc[nH]3)=N/C2=C\\NC23CC4CC(CC(C4)C2)C3)cc1", "> 60.0 min"],
  ["Cc1ccc(Oc2ccc(N/C=C3\\N=C(c4ccc[nH]4)C4=C3CCCC4)cc2)cc1.Cl", "> 60.0 min"],
  ["C(/NCC1CCCCCC1)=C1/N=C(c2ccc[nH]2)C2=C1CCCC2.Cl", "> 60.0 min"],
  ["CC1=C(C)/C(=C/NC2CCCCCC2)N=C1c1ccc[nH]1.Cl", "45.1 min"]
]}
